System: Trichomonas vaginalis
Assay: Trichomonicidal activity against Trichomonas vaginalis GT3 compound treated for 48 hrs followed by incubation for 48 hrs in compound-free medium by cell counting
Assay type: functional, organism-based
Conditions: GT3, 48 h
MEASURED_ATTRIBUTE: pIC50
Scale: pIC50 equals -log10([C]), with [C] in mol/L.

Data request: What pIC50 value was documented for this compound, `O=C(CN1CCCCC1)Nc1nc2ccc([N+](=O)[O-])cc2s1` ?
Data returned: 5.46

Data request: Same thing, different compound: `O=C(CN1CCOCC1)Nc1ncc([N+](=O)[O-])s1`
Data returned: 6.52

Data request: Same thing, different compound: `O=C(CN1CCCC1)Nc1ncc([N+](=O)[O-])s1`
Data returned: 5.21

----------
System: Giardia duodenalis
Assay: Inhibition of Giardia intestinalis fructose 1,6-bisphosphate aldolase at 400 nM after 2 hrs by spectrophotometry
MEASURED_ATTRIBUTE: inhibition (%)
The reply should be a number in %, with the unit left off.

Check out these entries, answers already filled in.
                                   molecule  result_number
0       O=C(CN1CCCC1)Nc1ncc([N+](=O)[O-])s1             21
1              Nc1nc2ccc([N+](=O)[O-])cc2s1             -0
2  O=C(CN1CCCCC1)Nc1nc2ccc([N+](=O)[O-])cc2s1             -0
3  O=C(CN1CCCC1)Nc1nc2ccc([N+](=O)[O-])cc2s1             10

Data request: What inhibition value was documented for this molecule, O=C(Nc1ncc([N+](=O)[O-])s1)c1ccccc1O [TIZOXANIDE] ?
Data returned: 25

Data request: Same thing, different molecule: `CC(=O)Oc1ccccc1C(=O)Nc1ncc([N+](=O)[O-])s1`
Data returned: 31

Data request: Same thing, different molecule: `CCN(CC)CC(=O)Nc1nc2ccc([N+](=O)[O-])cc2s1`
Data returned: -0

Data request: Same thing, different molecule: `O=C(CN1CCOCC1)Nc1ncc([N+](=O)[O-])s1`
Data returned: 54

Data request: Same thing, different molecule: `O=C(CN1CCCCC1)Nc1ncc([N+](=O)[O-])s1`
Data returned: 5

----------
System: Trichomonas vaginalis
Assay: Trichomonicidal activity against Trichomonas vaginalis GT3 compound treated for 48 hrs followed by incubation for 48 hrs in compound-free medium by cell counting
Assay type: functional, organism-based
Conditions: GT3, 48 h
Threshold check on IC50: strictly below 600 nM is criterion met; on or above 600 nM is criterion not met.

Example cases with answers are listed next.
In [3]: df
Out[3]:
                               given_smiles           category
0  O=C(CN1CCCC1)Nc1nc2ccc([N+](=O)[O-])cc2s1      criterion met
1      O=C(CN1CCCCC1)Nc1ncc([N+](=O)[O-])s1  criterion not met
2  O=C(CN1CCOCC1)Nc1nc2ccc([N+](=O)[O-])cc2s1      criterion met
3  CCN(CC)CC(=O)Nc1nc2ccc([N+](=O)[O-])cc2s1  criterion not met
4              Nc1nc2ccc([N+](=O)[O-])cc2s1  criterion not met

From here, focus on the item given below.
Data request: # TODO verify IC50 < 600 nM strictly for this compound: `CCN(CC)CC(=O)Nc1ncc([N+](=O)[O-])s1`
Data returned: criterion not met

----------
Assay: Cytotoxicity against African green monkey Vero cells after 48 hrs by MTT assay
Format: cell-based
Conditions: chlorocebus sabaeus
MEASURED_ATTRIBUTE: CC50 at 48 h

Check out these entries, answers already filled in.
                                   compound     result
0       O=C(CN1CCCC1)Nc1ncc([N+](=O)[O-])s1  > 1000 µM
1              Nc1nc2ccc([N+](=O)[O-])cc2s1     607 µM
2  O=C(CN1CCCC1)Nc1nc2ccc([N+](=O)[O-])cc2s1  > 1000 µM
3      O=C(CN1CCOCC1)Nc1ncc([N+](=O)[O-])s1  > 1000 µM
4  O=C(CN1CCOCC1)Nc1nc2ccc([N+](=O)[O-])cc2s1  > 1000 µM
5  CCN(CC)CC(=O)Nc1nc2ccc([N+](=O)[O-])cc2s1  > 1000 µM
6       CCN(CC)CC(=O)Nc1ncc([N+](=O)[O-])s1  > 1000 µM
7  O=C(Nc1ncc([N+](=O)[O-])s1)c1ccccc1O [TIZOXANIDE]     388 µM
8  CC(=O)Nc1ncc([N+](=O)[O-])s1 [NITHIAMIDE]  > 1000 µM
9                 Cc1ncc([N+](=O)[O-])n1CCO     367 µM

Data request: What CC50 at 48 h value was documented for this compound, `O=C(CN1CCCCC1)Nc1nc2ccc([N+](=O)[O-])cc2s1` ?
Data returned: > 1000 µM

Data request: Same thing, different compound: `O=C(CN1CCCCC1)Nc1ncc([N+](=O)[O-])s1`
Data returned: > 1000 µM

----------
Test system: Giardia intestinalis
Assay: Giardicidal activity against Giardia intestinalis IMSS:0696:1 compound treated for 48 hrs followed by incubation for 48 hrs in compound-free medium by cell counting
Type: functional, organism-based
Details: Giardia duodenalis, IMSS:0696:1, 48 h; read-out: IC50
Recorded measurements of IC50, one per entry
The reply should be a number in nM, with the unit left off.

Check out these entries, answers already filled in.
                               given_smiles  measured_attribute  result_number
0  O=C(CN1CCOCC1)Nc1nc2ccc([N+](=O)[O-])cc2s1                IC50           3350
1  CCN(CC)CC(=O)Nc1nc2ccc([N+](=O)[O-])cc2s1                IC50           2030
2              Nc1nc2ccc([N+](=O)[O-])cc2s1                IC50          24400
3      O=C(CN1CCOCC1)Nc1ncc([N+](=O)[O-])s1                IC50            151
4  O=C(CN1CCCC1)Nc1nc2ccc([N+](=O)[O-])cc2s1                IC50            298
5      O=C(CN1CCCCC1)Nc1ncc([N+](=O)[O-])s1                IC50            219

Data request: What IC50 value was documented for this compound, `O=C(CN1CCCCC1)Nc1nc2ccc([N+](=O)[O-])cc2s1` ?
Data returned: 2320

Data request: Same thing, different compound: `O=C(CN1CCCC1)Nc1ncc([N+](=O)[O-])s1`
Data returned: 178

Data request: Same thing, different compound: `CCN(CC)CC(=O)Nc1ncc([N+](=O)[O-])s1`
Data returned: 122

----------
System: Giardia duodenalis
Assay: Inhibition of Giardia intestinalis fructose 1,6-bisphosphate aldolase at 400 nM after 2 hrs by spectrophotometry
MEASURED_ATTRIBUTE: inhibition (%)
The reply should be a number in %, with the unit left off.

Check out these entries, answers already filled in.
>>> df
                                   molecule  measured_attribute  result_number
0  O=C(CN1CCOCC1)Nc1nc2ccc([N+](=O)[O-])cc2s1          inhibition             35
1                    Nc1ncc([N+](=O)[O-])s1          inhibition             -0
2       CCN(CC)CC(=O)Nc1ncc([N+](=O)[O-])s1          inhibition             66

// switching to the query molecule
Data request: What inhibition value was documented for this molecule, CC(=O)Nc1ncc([N+](=O)[O-])s1 [NITHIAMIDE] ?
Data returned: -0
